The following compounds are listed with their measured % inhibition female (individual replicates) R1 values.
# Tested on: P. falciparum female gametocytes
# measurementProtocol: P. falciparum Dual Gamete Formation Assay (PfDGFA), female readout (Pfs25-positive female gametes)
# Format: cell-based, Plasmodium falciparum NF54
# conditions: PfDGFA at 2µM, 24h preincubation with gametocytes; replicate R1
Provide only the numeric value, understood in %.

>  <compound>
Cc1ccccc1OCC(O)CNC1CCC(NCC(O)COc2ccccc2C)CC1 (stereo not shown)

>  <resultUnits>
%

>  <experimentalResult>
36.4

$$$$
>  <compound>
CCc1c(CCNCCCCCCNC(C)(C)Cc2ccc3c(c2CC)OCO3)ccc(OC)c1OC.Cl

>  <resultUnits>
%

>  <experimentalResult>
20.6

$$$$
>  <compound>
COc1ccc2c(OC)c(CNCCCCCCNCc3ccc4cc(OC)ccc4c3OC)ccc2c1.CS(=O)(=O)O

>  <resultUnits>
%

>  <experimentalResult>
27.7

$$$$

API: the following record is the query input.
Problem: Quickly give me recorded % inhibition female (individual replicates) R1 for COc1cc2nc(NCc3cccc(CNC(=O)c4ccc(-c5ccc(C(C)=O)cc5)cc4)c3)nc(N)c2cc1OC.O=C(O)C(F)(F)F
Result: 31.2
